# Tested on: HCV replicon 1AY93H
# Test Method Notes: microbe, parasite or virus in culture
# Format: cell-based, Hepatitis C virus (HCV)
# Condition Notes: read-out: 1A Y93H IC50; replicon 1AY93H; Replicon Assay A
pIC50: −log10 of the molar value.
Label not satisfied if pIC50 falls below 10; label satisfied in every other case.

Item COC(=O)NC(C(=O)N1CCC[C@H]1c1ncc(-c2ccc3c(c2)cc2n3C(c3ccc(C(C)C)s3)Oc3cc(-c4cnc([C@@H]5CCCN5C(=O)[C@@H](NC(=O)OC)C(C)C)[nH]4)cc(F)c3-2)[nH]1)C1C[C@@H](C)O[C@@H](C)C1 (single isomer, unassigned) [Compound 232] with pIC50 of 10 or above?
not satisfied

Item COC(=O)N[C@H](C(=O)N1[C@@H]2C[C@@H]2C[C@H]1c1ncc(-c2cc(F)c3c(c2)OC(c2ccc(C4CC4)s2)n2c-3cc3cc(-c4cnc([C@@H]5C[C@H]6C[C@H]6N5C(=O)[C@@H](NC(=O)OC)C(C)C)[nH]4)ccc32)[nH]1)C(C)C (single isomer, unassigned) [Compound 88] with pIC50 of 10 or above?
satisfied

Item COC(=O)NC(C(=O)N1CCC[C@H]1c1ncc(-c2ccc3c(c2)cc2n3C(c3ccc(C4CC4)s3)Oc3cc(-c4cnc([C@@H]5CCCN5C(=O)[C@@H](NC(=O)OC)C(C)C)[nH]4)cc(F)c3-2)[nH]1)C1CCOC(C)(C)C1 (some centres unmarked) [Compound 219] with pIC50 of 10 or above?
satisfied

Item COC(=O)NC(C(=O)N1CCC[C@H]1c1ncc(-c2ccc3c(c2)cc2n3C(c3cc4ccccc4s3)Oc3cc(-c4cnc([C@@H]5CCCN5C(=O)[C@@H](NC(=O)OC)C5CCOCC5)[nH]4)cc(F)c3-2)[nH]1)C(C)(C)F (single isomer, unassigned) [Compound 183] with pIC50 of 10 or above?
not satisfied

Item COC(=O)NC(C(=O)N1CCC[C@H]1c1ncc(-c2ccc3c(c2)cc2n3C(c3ccc(C4CC4)s3)Oc3cc(-c4cnc([C@@H]5CCCN5C(=O)[C@@H](NC(=O)OC)C(C)C)[nH]4)cc(F)c3-2)[nH]1)C1CCO[C@@H](C)C1 (single isomer, unassigned) [Compound 355] with pIC50 of 10 or above?
not satisfied

Item CCc1ccc(C2Oc3cc(-c4cnc([C@@H]5CCCN5C(=O)C(NC(=O)OC)C5CCOC(C)(C)C5)[nH]4)cc(F)c3-c3cc4cc(-c5cnc([C@@H]6CCCN6C(=O)C(NC(=O)OC)C6CCOC(C)(C)C6)[nH]5)ccc4n32)s1 (single isomer, unassigned) [Compound 295] with pIC50 of 10 or above?
satisfied

Item COC(=O)N[C@H](C(=O)N1CCC[C@H]1c1nc(-c2cc(F)c3c(c2)OC(c2ccc(C)s2)n2c-3cc3cc(-c4cnc([C@@H]5CCCN5C(=O)[C@@H](NC(=O)OC)C5CCOCC5)[nH]4)ccc32)c[nH]1)C(C)C (some centres unmarked) with pIC50 of 10 or above?
satisfied

Item COC(=O)N[C@H](C(=O)N1CCC[C@H]1c1ncc(-c2cc(F)c3c(c2)OC(c2cc4c(s2)CCC(C)(C)O4)n2c-3cc3cc(-c4cnc([C@@H]5CCCN5C(=O)[C@@H](NC(=O)OC)C(C)C)[nH]4)ccc32)[nH]1)C(C)C (single isomer, unassigned) [Compound 398] with pIC50 of 10 or above?
not satisfied

Item CCc1ccc(C2Oc3cc(-c4cnc([C@@H]5CCCN5C(=O)C(NC(=O)OC)C5C[C@@H](C)O[C@@H](C)C5)[nH]4)cc(F)c3-c3cc4cc(-c5cnc([C@@H]6CCCN6C(=O)[C@@H](NC(=O)OC)C(C)C)[nH]5)ccc4n32)s1 (single isomer, unassigned) [Compound 154] with pIC50 of 10 or above?
not satisfied

Item COC(=O)N[C@H](C(=O)N1CCC[C@H]1c1ncc(-c2cc(F)c3c(c2)OC(c2cc4nccnc4s2)n2c-3cc3cc(-c4cnc([C@@H]5CCCN5C(=O)[C@@H](NC(=O)OC)C(C)C)[nH]4)ccc32)[nH]1)C(C)C (single isomer, unassigned) [Compound 47] with pIC50 of 10 or above?
not satisfied

###

# Test system: HCV replicon 2B
# Test Method Notes: microbe, parasite or virus in culture
# Type: cell-based, Hepatitis C virus (HCV)
# Condition Notes: read-out: 2B IC50; HCV replicon 2B; Replicon Assay A
Readout Name: IC50 (nM)
Kindly provide the numeric value in nM only, without the unit symbol.

Give the reported IC50 for this molecule. COC(=O)N[C@H](C(=O)N1CCC[C@H]1c1ncc(-c2cc(F)c3c(c2)OC(c2scc4c2OCCO4)n2c-3cc3cc(-c4cnc([C@@H]5CCCN5C(=O)[C@@H](NC(=O)OC)C(C)C)[nH]4)ccc32)[nH]1)C(C)C (single isomer, unassigned) [Compound 523]
12.4

Give the reported IC50 for this molecule. COC(=O)N[C@H](C(=O)N1CCC[C@H]1c1ncc(-c2ccc3c(c2)OC(c2cc(C)c(C)s2)n2c-3cc3cc(-c4cnc([C@@H]5C[C@H]6C[C@H]6N5C(=O)[C@@H](NC(=O)OC)C(C)C)[nH]4)ccc32)[nH]1)C(C)C (single isomer, unassigned) [Compound 503]
7.51

Give the reported IC50 for this molecule. COC(=O)NC(C(=O)N1CCC[C@H]1c1ncc(-c2ccc3c(c2)cc2n3C(c3ccc(CC4CC4)s3)Oc3cc(-c4cnc([C@@H]5CCCN5C(=O)[C@@H](NC(=O)OC)C(C)C)[nH]4)cc(F)c3-2)[nH]1)C1CCOC(C)(C)C1 (single isomer, unassigned) [Compound 408]
0.005

Give the reported IC50 for this molecule. COC(=O)N[C@H](C(=O)N1CCC[C@H]1c1ncc(-c2cc(F)c3c(c2)OC(c2cc4c(s2)CCC4)n2c-3cc3cc(-c4cnc([C@@H]5CCCN5C(=O)[C@@H](NC(=O)OC)C5CCOCC5)[nH]4)ccc32)[nH]1)C(C)C (single isomer, unassigned) [Compound 621]
0.835

###

Give pIC50 for every item shown.
# Test system: HCV replicon 1AY93H
# Test Method Notes: microbe, parasite or virus in culture
# Format: cell-based, Hepatitis C virus (HCV)
# Condition Notes: read-out: 1A Y93H IC50; replicon 1AY93H; Replicon Assay A
# Procedure: To measure cell-based anti-HCV activity of compounds of the present invention, two complimentary assays were employed using various replicons. […] The replicon RNA level was measured using real time PCR (TaqMan® EZ RT-PCR, Applied Biosystems 403028) with the following primers and probes: […] The amount of HCV replicon RNA per cell is quantified using a linear regression curve for a known nanogram (ng) amount of HCV replicon total RNA. […]
The read-out pIC50 is expressed as -log10 of concentration in moles per litre.

Give the reported pIC50 for this molecule. COC(=O)N[C@H](C(=O)N1CCC[C@H]1c1ncc(-c2cc(F)c3c(c2)OC(c2sc(C4CC4)cc2C)n2c-3cc3cc(-c4cnc([C@@H]5CCCN5C(=O)[C@@H](NC(=O)OC)C(C)C)[nH]4)ccc32)[nH]1)C(C)C (single isomer, unassigned) [Compound 328]
8.55

Give the reported pIC50 for this molecule. COC(=O)NC(C(=O)N1CCC[C@H]1c1ncc(-c2ccc3c(c2)cc2n3C(c3ccc(C4CC4)s3)Oc3cc(-c4cnc([C@@H]5CCCN5C(=O)[C@@H](NC(=O)OC)C(C)C)[nH]4)cc(F)c3-2)[nH]1)C1CCO[C@H](C)C1 (single isomer, unassigned) [Compound 140]
8.26

Give the reported pIC50 for this molecule. COC(=O)N[C@H](C(=O)N1CCC[C@H]1c1ncc(-c2ccc3c(c2)OC(c2cc4ccccc4s2)n2c-3cc3cc(-c4cnc([C@@H]5CCCN5C(=O)[C@@H](NC(=O)OC)C5CCOCC5)[nH]4)ccc32)[nH]1)C1CCOCC1 (single isomer, unassigned) [Compound 263]
11.52

Give the reported pIC50 for this molecule. CCc1ccc(C2Oc3cc(-c4cnc([C@@H]5CCCN5C(=O)[C@@H](NC(=O)OC)C(C)C)[nH]4)cc(F)c3-c3cc4cc(-c5cnc([C@@H]6CCCN6C(=O)[C@@H](NC(=O)OC)C6CCOCC6)[nH]5)ccc4n32)s1 (single isomer, unassigned) [Compound 336]
10.21

Give the reported pIC50 for this molecule. COC(=O)NC(C(=O)N1CCC[C@H]1c1ncc(-c2ccc3c(c2)cc2n3C(c3ccc(C4CC4)s3)Oc3cc(-c4cnc([C@@H]5CCCN5C(=O)[C@@H](NC(=O)OC)C(C)C)[nH]4)cc(F)c3-2)[nH]1)C1C2COCC21 (single isomer, unassigned) [Compound 338]
9.45

Give the reported pIC50 for this molecule. COC(=O)N[C@H](C(=O)N1CCC[C@H]1c1ncc(-c2cc(F)c3c(c2)OC(c2ccc(CC4CC4)s2)n2c-3cc3cc(-c4cnc([C@@H]5C[C@H]6C[C@H]6N5C(=O)[C@@H](NC(=O)OC)C(C)C)[nH]4)ccc32)[nH]1)C(C)C (single isomer, unassigned) [Compound 390]
9.50

Give the reported pIC50 for this molecule. COC(=O)NC(C(=O)N1CCC[C@H]1c1ncc(-c2cc(F)c3c(c2)OC(c2ccc(C4CC4)s2)n2c-3cc3cc(-c4cnc([C@@H]5CCCN5C(=O)[C@@H](NC(=O)OC)C(C)C)[nH]4)ccc32)[nH]1)C1CCOC(C)(C)C1 (single isomer, unassigned) [Compound 210]
9.28
